Could you please report measured IC50 for the items listed next?
# measurement_target: TAFIa (Homo sapiens)
# Construct: purchased American Diagnostica 874TAFIA
# Sequence (Q96IY4 115-423): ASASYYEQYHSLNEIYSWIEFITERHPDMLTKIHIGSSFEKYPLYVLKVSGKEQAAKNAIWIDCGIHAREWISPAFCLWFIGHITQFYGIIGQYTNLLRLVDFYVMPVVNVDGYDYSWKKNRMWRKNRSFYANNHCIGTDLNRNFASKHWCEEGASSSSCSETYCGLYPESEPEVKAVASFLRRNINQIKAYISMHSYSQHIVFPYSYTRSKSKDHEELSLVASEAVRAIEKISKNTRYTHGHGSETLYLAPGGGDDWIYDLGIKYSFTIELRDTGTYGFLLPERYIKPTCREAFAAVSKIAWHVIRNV
# assay_explanation: TAFIa enzyme assay (Actichrome plasma TAFI activity kit)
# Assay type: biochemical
# measurement_context: 15 min preincubation at room temperature, read at 420 nm, duplicate determination
Answers are plain numbers, in nM.

- compound: "CC(C)(C)c1ccc(-c2noc(Cn3cnc(C(Cc4ccc(N)nc4)C(=O)O)c3)n2)cc1 (centres unmarked) [Example 17]"
  IC50 [nM]: 745
- compound: "COc1ccc(-c2nc(Cn3cnc(C(Cc4ccc(N)nc4)C(=O)O)c3)no2)cc1 (centres unmarked) [Example 15]"
  IC50 [nM]: 223
- compound: "Nc1ccc(CC(C(=O)O)c2cn(Cc3noc(-c4ccc(C(F)(F)F)cc4)n3)cn2)cn1 (centres unmarked) [Example 10]"
  IC50 [nM]: 258

# batch size: 5; output IC50 per entry
1. Nc1ccc(CC(C(=O)O)c2cn(Cc3cnc(-c4ccc(Cl)s4)s3)cn2)cn1 (centres unmarked) [Example 3]
2. COc1ccc(-c2cc(Cn3cnc(C(Cc4ccc(N)nc4)C(=O)O)c3)no2)cc1 (centres unmarked) [Example 5]
3. Nc1ccc(CC(C(=O)O)c2cn(Cc3nnc(C4CC4)s3)cn2)cn1 (centres unmarked) [Example 12]
4. CC(C)(C)c1nnc(Cn2cnc(C(Cc3ccc(N)nc3)C(=O)O)c2)s1 (centres unmarked) [Example 9]
5. Cc1nc(-c2cc(Cn3cnc(C(Cc4ccc(N)nc4)C(=O)O)c3)no2)cs1 (centres unmarked) [Example 18]

Result ::
1. 326
2. 104
3. 30
4. 169
5. 326
